All figures here come from patent US20240101576A1.

# pIC50 per entry
target: EGFR exon 20 SVD Ins D770_N771 (Ba/F3 cells) (Homo sapiens, UniProt P00533, INS770SVD); construct: expressed in transfected cells; host or cells: Ba/F3 (murine pro-B cells), retroviral transduction, puromycin selection, IL3-independent pool; test: Inhibitor activity on EGFR-dependent cell growth (CellTiter-Glo, 72 h), Ba/F3 EGFR exon 20 SVD Ins; type: cell-based; settings: read-out: BaF3 SVD IC50
Sequence (P00533 with tags, fused parts or gaps INS770SVD): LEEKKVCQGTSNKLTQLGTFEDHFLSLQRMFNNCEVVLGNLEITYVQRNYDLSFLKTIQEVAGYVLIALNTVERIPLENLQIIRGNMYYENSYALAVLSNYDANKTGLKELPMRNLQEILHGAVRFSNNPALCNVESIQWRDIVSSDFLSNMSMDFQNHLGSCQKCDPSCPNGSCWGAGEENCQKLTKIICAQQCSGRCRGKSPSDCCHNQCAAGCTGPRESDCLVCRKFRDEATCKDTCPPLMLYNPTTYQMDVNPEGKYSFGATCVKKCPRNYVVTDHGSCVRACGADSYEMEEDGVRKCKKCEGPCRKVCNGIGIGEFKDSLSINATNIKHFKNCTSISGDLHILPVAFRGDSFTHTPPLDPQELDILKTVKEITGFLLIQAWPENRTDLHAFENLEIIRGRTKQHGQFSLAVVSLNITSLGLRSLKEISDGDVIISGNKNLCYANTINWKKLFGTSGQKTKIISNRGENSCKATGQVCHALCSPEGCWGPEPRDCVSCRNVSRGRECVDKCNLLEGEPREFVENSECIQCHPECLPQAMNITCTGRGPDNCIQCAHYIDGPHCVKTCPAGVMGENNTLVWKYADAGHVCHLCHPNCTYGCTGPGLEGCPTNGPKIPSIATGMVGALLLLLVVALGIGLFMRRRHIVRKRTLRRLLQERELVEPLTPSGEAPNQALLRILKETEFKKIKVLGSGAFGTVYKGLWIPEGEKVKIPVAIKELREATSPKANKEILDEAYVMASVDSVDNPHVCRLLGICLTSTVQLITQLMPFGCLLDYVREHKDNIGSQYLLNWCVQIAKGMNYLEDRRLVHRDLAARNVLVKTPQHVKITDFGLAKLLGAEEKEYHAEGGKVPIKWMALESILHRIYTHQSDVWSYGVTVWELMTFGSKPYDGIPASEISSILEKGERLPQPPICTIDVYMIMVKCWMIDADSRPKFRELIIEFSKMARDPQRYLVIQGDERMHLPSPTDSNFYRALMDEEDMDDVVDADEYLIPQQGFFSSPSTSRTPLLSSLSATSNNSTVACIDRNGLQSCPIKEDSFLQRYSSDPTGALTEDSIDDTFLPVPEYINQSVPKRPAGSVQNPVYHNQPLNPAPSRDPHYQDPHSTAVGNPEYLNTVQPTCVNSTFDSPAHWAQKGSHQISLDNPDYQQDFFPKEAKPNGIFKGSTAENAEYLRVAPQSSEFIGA
pIC50: −log10 of the molar value.

In the examples that follow, each entry is paired with its recorded pIC50.
>>> measured_value("COc1c(Cl)cccc1Nc1c(-c2ccncc2F)[nH]c2c1C(=O)NC[C@@H]2CCN1CCOCC1 [compound 485]")
"< 6.00"
>>> measured_value("COCC[C@H]1CNC(=O)c2c1[nH]c(-c1ccncn1)c2Nc1cccc(Cl)c1OC [445b]")
"6.00 to 7.00"

Now look at this entry.
In: Suppose we examine the molecule COc1c(Cl)cccc1Nc1c(-c2ccnc(Nc3cnn(C)c3)n2)[nH]c2c1C(=O)NCC2 [compound 109] ; what pIC50 value has been reported?
Out: > 7.00

###

biological target: EGFR exon 20 NPG Ins D770_N771 (Ba/F3 cells) (Homo sapiens, UniProt P00533, INS770NPG); construct: expressed in transfected cells; host or cells: Ba/F3 (murine pro-B cells), retroviral transduction, puromycin selection, IL3-independent pool; assay: Inhibitor activity on EGFR-dependent cell growth (CellTiter-Glo, 72 h), Ba/F3 EGFR exon 20 NPG Ins; format: cell-based; details: read-out: BaF3 NPG IC50
Sequence (P00533 with tags, fused parts or gaps INS770NPG): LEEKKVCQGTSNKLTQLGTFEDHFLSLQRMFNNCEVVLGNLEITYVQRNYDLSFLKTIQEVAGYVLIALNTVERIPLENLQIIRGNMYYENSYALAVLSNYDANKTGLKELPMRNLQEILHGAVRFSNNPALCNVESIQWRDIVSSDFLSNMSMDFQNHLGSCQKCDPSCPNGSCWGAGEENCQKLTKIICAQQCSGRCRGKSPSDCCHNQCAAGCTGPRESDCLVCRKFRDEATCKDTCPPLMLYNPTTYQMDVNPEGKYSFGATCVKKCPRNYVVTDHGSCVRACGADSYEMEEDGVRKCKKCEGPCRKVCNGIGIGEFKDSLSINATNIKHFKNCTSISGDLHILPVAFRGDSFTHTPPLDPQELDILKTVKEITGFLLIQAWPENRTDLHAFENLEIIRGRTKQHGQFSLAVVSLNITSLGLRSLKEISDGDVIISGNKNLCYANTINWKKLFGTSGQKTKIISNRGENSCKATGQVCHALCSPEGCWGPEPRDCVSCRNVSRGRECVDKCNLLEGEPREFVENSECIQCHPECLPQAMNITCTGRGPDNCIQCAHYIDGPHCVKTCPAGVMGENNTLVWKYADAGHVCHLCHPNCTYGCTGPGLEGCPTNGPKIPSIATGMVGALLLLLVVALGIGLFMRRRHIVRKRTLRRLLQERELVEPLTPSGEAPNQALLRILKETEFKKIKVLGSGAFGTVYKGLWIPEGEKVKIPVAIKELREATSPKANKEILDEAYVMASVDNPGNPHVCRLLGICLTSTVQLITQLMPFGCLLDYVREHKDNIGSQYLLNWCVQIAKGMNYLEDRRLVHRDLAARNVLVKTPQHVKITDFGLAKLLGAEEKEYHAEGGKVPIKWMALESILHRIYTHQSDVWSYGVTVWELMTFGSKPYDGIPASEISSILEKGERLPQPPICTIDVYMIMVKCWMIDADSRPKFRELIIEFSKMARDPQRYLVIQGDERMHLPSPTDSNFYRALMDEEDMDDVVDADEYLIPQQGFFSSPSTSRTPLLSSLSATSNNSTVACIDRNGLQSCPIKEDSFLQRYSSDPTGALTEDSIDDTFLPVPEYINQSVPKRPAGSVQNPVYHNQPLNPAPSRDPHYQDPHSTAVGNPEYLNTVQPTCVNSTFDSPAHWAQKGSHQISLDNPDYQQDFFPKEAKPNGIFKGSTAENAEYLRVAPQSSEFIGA
Examples of compounds with documented IC50 follow.

Consider the following illustrative entries.
>>> measured_value("CC#CC(=O)N1CCC2(CC1)CNC(=O)c1c2[nH]c(-c2ccncc2F)c1Nc1cccc(F)c1OC")
"> 1000 nM"
>>> measured_value("COc1c(Cl)cccc1Nc1c(-c2ccnc3ccc(OCC4COC4)nc23)[nH]c2c1C(=O)NCC2")
"< 100 nM"
>>> measured_value("COc1c(Cl)cccc1Nc1c(-c2ccncc2F)[nH]c2c1C(=O)NCC2C[C@H]1CO[C@H](CN(C)C)CO1 (single isomer, unassigned)")
"100 to 1000 nM"

In: What value of measured IC50 is listed for COc1c(Cl)cccc1Nc1c(-c2ccnc(NC[C@H]3CCCO3)n2)[nH]c2c1C(=O)NCC2 ?
Out: > 1000 nM

In: Need IC50, item COc1c(Cl)cccc1Nc1c(-c2ccncc2F)[nH]c2c1C(=O)NC[C@@H]2CC1COC1 [468a]
Out: 100 to 1000 nM

In: Requested field: IC50. Item: COc1c(Cl)cccc1Nc1c(-c2ccnc3c2OCC(=O)N3)[nH]c2c1C(=O)NCC2
Out: 100 to 1000 nM

In: I would be grateful if you could share the reported IC50 for COc1c(Cl)cccc1Nc1c(-c2ccnc3ccc(OC4CC(F)(F)C4)nc23)[nH]c2c1C(=O)NCC2 .
Out: < 100 nM

###

Below: a set of entries, each annotated with reported pIC50.
molecular target: EGFR exon 20 ASV Ins V769_D770 (Ba/F3 cells) (Homo sapiens, UniProt P00533, INS769ASV); construct: expressed in transfected cells; host or cells: Ba/F3 (murine pro-B cells), retroviral transduction, puromycin selection, IL3-independent pool; test: Inhibitor activity on EGFR-dependent cell growth (CellTiter-Glo, 72 h), Ba/F3 EGFR exon 20 ASV Ins; type: cell-based; details: read-out: BaF3 ASV IC50
Sequence (P00533 with tags, fused parts or gaps INS769ASV): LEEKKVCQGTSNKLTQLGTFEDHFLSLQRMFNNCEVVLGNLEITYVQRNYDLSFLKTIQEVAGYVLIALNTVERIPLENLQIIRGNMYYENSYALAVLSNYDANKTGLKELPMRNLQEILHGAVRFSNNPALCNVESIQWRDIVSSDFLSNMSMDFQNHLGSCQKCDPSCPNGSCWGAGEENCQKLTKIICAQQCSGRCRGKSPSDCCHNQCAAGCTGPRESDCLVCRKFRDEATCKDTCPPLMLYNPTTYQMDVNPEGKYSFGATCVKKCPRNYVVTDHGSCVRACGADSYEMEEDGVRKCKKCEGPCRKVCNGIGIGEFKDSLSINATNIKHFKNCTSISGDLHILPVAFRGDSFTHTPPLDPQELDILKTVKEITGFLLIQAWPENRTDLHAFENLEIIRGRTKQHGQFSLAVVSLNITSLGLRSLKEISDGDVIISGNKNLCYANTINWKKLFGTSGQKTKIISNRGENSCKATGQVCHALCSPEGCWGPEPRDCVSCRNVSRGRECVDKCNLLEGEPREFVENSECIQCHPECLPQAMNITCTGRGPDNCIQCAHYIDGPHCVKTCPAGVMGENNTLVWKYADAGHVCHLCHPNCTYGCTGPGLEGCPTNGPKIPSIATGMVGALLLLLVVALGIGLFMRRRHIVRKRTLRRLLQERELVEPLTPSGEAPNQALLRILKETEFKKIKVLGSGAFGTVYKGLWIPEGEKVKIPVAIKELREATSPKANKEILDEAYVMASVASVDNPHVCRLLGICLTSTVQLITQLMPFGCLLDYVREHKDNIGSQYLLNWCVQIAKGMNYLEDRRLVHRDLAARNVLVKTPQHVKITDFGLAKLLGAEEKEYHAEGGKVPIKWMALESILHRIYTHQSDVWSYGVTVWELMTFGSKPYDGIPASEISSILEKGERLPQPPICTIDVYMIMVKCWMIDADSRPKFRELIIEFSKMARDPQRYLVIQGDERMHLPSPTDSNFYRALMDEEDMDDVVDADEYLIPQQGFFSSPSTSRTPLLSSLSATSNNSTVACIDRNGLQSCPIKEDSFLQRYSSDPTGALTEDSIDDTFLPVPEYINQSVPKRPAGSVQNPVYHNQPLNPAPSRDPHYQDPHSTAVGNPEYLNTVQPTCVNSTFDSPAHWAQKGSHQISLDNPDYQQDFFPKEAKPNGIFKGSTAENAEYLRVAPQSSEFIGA
pIC50: −log10 of the molar value.

Here's what some known entries look like.
>>> measured_value("CSc1c(Cl)cccc1Nc1c(-c2ccnc(N)n2)[nH]c2c1C(=O)NCC2")
"6.00 to 7.00"
>>> measured_value("COCC[C@@H]1CNC(=O)c2c(Nc3cccc(Cl)c3OC)c(-c3ccncn3)n(C)c21 (single isomer, unassigned)")
"< 6.00"
>>> measured_value("COc1c(F)cccc1Nc1c(-c2ccncc2F)[nH]c2c1C(=O)NC[C@@H]2C[C@@H]1COCCO1")
"6.00 to 7.00"
>>> measured_value("COc1c(Cl)cccc1Nc1c(-c2ccnc3ccc(OC4(C)CC4)nc23)[nH]c2c1C(=O)NC[C@H]2C (single isomer, unassigned)")
"> 7.00"
>>> measured_value("C=CC(=O)N1CCC2(CC1)CNC(=O)c1c2[nH]c(-c2ccncc2F)c1Nc1cc(F)cc(Cl)c1OC")
"> 7.00"

In: Return pIC50 measured with EGFR exon 20 ASV Ins V769_D770 (Ba/F3 cells) (Homo sapiens, UniProt P00533, INS769ASV) given this molecule: CCOc1ncc2nccc(-c3[nH]c4c(c3Nc3cccc(Cl)c3OC)C(=O)NCC4)c2n1
Out: > 7.00

In: State its pIC50 on EGFR exon 20 ASV Ins V769_D770 (Ba/F3 cells) (Homo sapiens, UniProt P00533, INS769ASV): COc1c(Cl)cccc1Nc1c(-c2ccncc2F)[nH]c2c1C(=O)NC[C@]21CCN(S(C)(=O)=O)C1
Out: < 6.00

In: Please provide the recorded pIC50 for COC(=O)N1CCC2(CNC(=O)c3c2[nH]c(-c2ccncc2F)c3Nc2cccc(Cl)c2OC)C1 (single isomer, unassigned) , tested on EGFR exon 20 ASV Ins V769_D770 (Ba/F3 cells) (Homo sapiens, UniProt P00533, INS769ASV).
Out: 6.00 to 7.00

In: API: value(readout=pIC50, system=EGFR exon 20 ASV Ins V769_D770 (Ba/F3 cells) (Homo sapiens, UniProt P00533, INS769ASV)) for record COc1c(F)cccc1Nc1c(-c2ccnc3cccnc23)[nH]c2c1C(=O)NCC2
Out: > 7.00

In: Param readout = pIC50; param system = EGFR exon 20 ASV Ins V769_D770 (Ba/F3 cells) (Homo sapiens, UniProt P00533, INS769ASV); param query = COc1ccc2nccc(-c3[nH]c4c(c3Nc3cccc(Cl)c3OC)C(=O)NC[C@@H]4C)c2n1 [310b] ; response: value
Out: > 7.00

In: Identify the measured pIC50 of COc1c(Nc2c(-c3ccnc(N)n3)[nH]c3c2C(=O)NCC3)ccc(F)c1Cl for EGFR exon 20 ASV Ins V769_D770 (Ba/F3 cells) (Homo sapiens, UniProt P00533, INS769ASV).
Out: 6.00 to 7.00

In: Query for EGFR exon 20 ASV Ins V769_D770 (Ba/F3 cells) (Homo sapiens, UniProt P00533, INS769ASV): what pIC50 does the record show for COc1c(Cl)cccc1Nc1c(-c2ccnc3cnc(OC4COC4)nc23)[nH]c2c1C(=O)NCC2 ?
Out: > 7.00

In: Give recorded pIC50 with EGFR exon 20 ASV Ins V769_D770 (Ba/F3 cells) (Homo sapiens, UniProt P00533, INS769ASV) for the following molecule: COc1c(Cl)cccc1Nc1c(-c2ccnc(NC[C@@H]3COCCO3)n2)[nH]c2c1C(=O)NCC2
Out: 6.00 to 7.00

In: Fill in the recorded pIC50 for this molecule, with EGFR exon 20 ASV Ins V769_D770 (Ba/F3 cells) (Homo sapiens, UniProt P00533, INS769ASV) as test system: COc1c(Cl)cccc1Nc1c(-c2ccncc2F)[nH]c2c1C(=O)NC[C@@H]2CC(C)(C)O
Out: 6.00 to 7.00

###

target: EGFR exon 20 SVD Ins D770_N771 (Ba/F3 cells) (Homo sapiens, UniProt P00533, INS770SVD); construct: expressed in transfected cells; host or cells: Ba/F3 (murine pro-B cells), retroviral transduction, puromycin selection, IL3-independent pool; test: Inhibitor activity on EGFR-dependent cell growth (CellTiter-Glo, 72 h), Ba/F3 EGFR exon 20 SVD Ins; type: cell-based; conditions: read-out: BaF3 SVD IC50
Entries and their IC50

In: // IC50 lookup, key: COc1c(Cl)cccc1Nc1c(-c2ccnc(N)n2)[nH]c2c1C(=O)NC[C@@H]2C[C@H]1COCCO1 [Compound 531]
Out: < 100 nM

In: Any idea what IC50 was measured for COc1c(Cl)cccc1Nc1c(-c2ccnc(-c3ccnnc3)n2)[nH]c2c1C(=O)NCC2 [compound 542] ?
Out: > 1000 nM

###

target: EGFR exon 20 NPG Ins D770_N771 (Ba/F3 cells) (Homo sapiens, UniProt P00533, INS770NPG); construct: expressed in transfected cells; host or cells: Ba/F3 (murine pro-B cells), retroviral transduction, puromycin selection, IL3-independent pool; experiment: Inhibitor activity on EGFR-dependent cell growth (CellTiter-Glo, 72 h), Ba/F3 EGFR exon 20 NPG Ins; format: cell-based; details: read-out: BaF3 NPG IC50
pIC50: −log10 of the molar value.
The entries below are paired with their reported pIC50.

Solved cases (3 shown):
>>> measured_value("COc1c(Cl)cccc1Nc1c(-c2ccncc2F)[nH]c2c1C(=O)NCC2C[C@@H]1CO[C@@H](CN(C)C)CO1 (single isomer, unassigned) [Compound 562]")
"> 7.00"
>>> measured_value("COc1c(Cl)cccc1Nc1c(-c2ccncc2F)[nH]c2c1C(=O)NC[C@@H]2C[C@@H]1CN(C)CCO1 [compound 790]")
"> 7.00"
>>> measured_value("COc1c(Cl)cccc1Nc1c(-c2ccnc3ccc(O[C@H]4CCOC4)nc23)[nH]c2c1C(=O)NCC2 [compound 739]")
"> 7.00"

Proceed to the following item.
In: Which pIC50 reading was recorded for the compound COc1c(Cl)cccc1Nc1c(-c2ccnc(N)c2)[nH]c2c1C(=O)NCC2 [compound 285] ?
Out: 6.00 to 7.00
